- Target under test: T1, native human ApoC3 (human, UniProt P02656 21-99, biotinylated in the captured-antigen assays (Tables 6 and 8); sites not stated)
- T1 construct: also called nhuApoC3; native huApoC3
- T1 sequence (P02656 21-99): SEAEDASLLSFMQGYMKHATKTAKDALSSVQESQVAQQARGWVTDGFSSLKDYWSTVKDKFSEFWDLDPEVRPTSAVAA
- Run description: SPR, IgG captured via anti-human Fc, ApoC3 analyte 100 nM
binders and their reported pKd
Units for pKd: none; it is -log10 of a concentration expressed in mol/L.

>  <Binder>
29G02 IgG (antibody, V domains shown) VH: QLQLVESGGGLVQPGGSLRLSCAASGFTFGTYSMRWVRQVPRKALEWVSSISTDGGGTAYRDSVKGRFTISRDNAKNTLYLQMNNLKPEDTAIYYCVIAGYSDWGQGTQVTVSS VL: DVVLTQTPGSLSVVPGESASISCKATQSLVHIDGKTYLYWLLQKPGQSPQRLIYQVSTRDSGVPDRFTGAGSGAEFTLKISGVKAEDAGVYYCAQDTYSTKTFGQGTKLEIK

>  <Quantity name>
pKd

>  <Recorded result>
8.60

$$$$
>  <Binder>
29B03 IgG (antibody, V domains shown) VH: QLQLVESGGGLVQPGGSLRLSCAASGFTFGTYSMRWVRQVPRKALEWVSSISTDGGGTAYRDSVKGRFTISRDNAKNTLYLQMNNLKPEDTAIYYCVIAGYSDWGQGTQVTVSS VL: DVVLTQTPGSLSVVPGESASISCKAGQNLVHPDGKTYLYWLLQKPGQSPQRLIYQVSNRDSGVPDRFTGSGSGTDFTLKISGVKVEDAGVYYCAQGTYWPKTFGQGTKLEIK

>  <Quantity name>
pKd

>  <Recorded result>
9.47

$$$$
>  <Binder>
5E5 WT IgG (antibody, V domains shown, Full-length IgG captured by an anti-human Fc antibody) VH: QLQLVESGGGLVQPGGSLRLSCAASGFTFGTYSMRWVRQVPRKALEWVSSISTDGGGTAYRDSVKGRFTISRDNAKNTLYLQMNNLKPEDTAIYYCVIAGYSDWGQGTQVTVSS VL: ATMLTQSPGSLSVVPGESASISCKTSQGLVHSDGKTYFYWFLQKPGQSPQQLIYQVSNRASGVPDRFTGSGSGTDFTLKISGVKAEDAGVYYCAQGTYYPHTFGSGTRLEIK

>  <Quantity name>
pKd

>  <Recorded result>
9.13

$$$$
>  <Binder>
29A05 IgG (antibody, V domains shown) VH: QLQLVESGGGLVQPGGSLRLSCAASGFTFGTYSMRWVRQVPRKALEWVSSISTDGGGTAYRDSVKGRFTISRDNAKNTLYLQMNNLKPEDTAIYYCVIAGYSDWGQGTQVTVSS VL: DVVLTQTPGSLSVVPGESASISCKASQSLVYSDGKTYLYWLLQKPGQSPQRLIYQVSNRDSGVPDRFTGSGSGTDFTLKISGVKVEDAGVYYCAQGTYWPKTFGQGTKLEIK

>  <Quantity name>
pKd

>  <Recorded result>
8.19

$$$$

**Q:** Return pKd for the following binder: 29F10 IgG (antibody, V domains shown) VH: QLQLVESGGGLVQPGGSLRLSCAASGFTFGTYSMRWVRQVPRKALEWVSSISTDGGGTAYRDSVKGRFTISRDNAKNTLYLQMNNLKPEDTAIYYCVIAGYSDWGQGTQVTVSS VL: DVVLTQTPGSLSVVPGEPASVSCKASQSLVHPDGKTYLYWLLQKPGQSPQRLIYQVSNRGSGVPDRFTGSGSGTDFTLEISGVKAEDAGVYYCAQGTYWPKTFGQGTKLEIK
**A:** 8.79

**Q:** Return pKd for the following binder: 29A06 IgG (antibody, V domains shown) VH: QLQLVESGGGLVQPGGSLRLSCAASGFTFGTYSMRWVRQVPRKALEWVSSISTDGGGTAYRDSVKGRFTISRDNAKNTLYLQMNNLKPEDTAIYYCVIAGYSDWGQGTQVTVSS VL: DVVLTQTPGSLSVVPGESASISCKASQNLVHSNGKTYLYWLLQKPGQSPQRLIYQVSNRGSEVPDRFTGSGSGTDFTLKISGVKAEDAGVYYCAQGTYWPKTFGQGTKLEIK
**A:** 9.09

**Q:** Return pKd for the following binder: 29G11 IgG (antibody, V domains shown) VH: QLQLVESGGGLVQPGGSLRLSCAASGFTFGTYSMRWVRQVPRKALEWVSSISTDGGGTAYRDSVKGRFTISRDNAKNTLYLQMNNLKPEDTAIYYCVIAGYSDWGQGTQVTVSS VL: DVVLTQTPGSLSVVPGGSASISCKASQSLVYSDGKTYLYWLRQKPGQSPQRLIYQVSNRPSGVPDRFTGSGSGTDFTLKISGVKAEDAGVYYCAQDTYSTKTFGQGTKLEIK
**A:** 8.31
